Biological target: HDAC 4 (Homo sapiens, UniProt P56524)
Construct: The His-tagged HDAC 4, wild-type catalytic domain, was expressed in E. coli; His tag; made in house; host or cells: E. coli BL21 Star (DE3)
Sequence (P56524 655-1084 limits assumed): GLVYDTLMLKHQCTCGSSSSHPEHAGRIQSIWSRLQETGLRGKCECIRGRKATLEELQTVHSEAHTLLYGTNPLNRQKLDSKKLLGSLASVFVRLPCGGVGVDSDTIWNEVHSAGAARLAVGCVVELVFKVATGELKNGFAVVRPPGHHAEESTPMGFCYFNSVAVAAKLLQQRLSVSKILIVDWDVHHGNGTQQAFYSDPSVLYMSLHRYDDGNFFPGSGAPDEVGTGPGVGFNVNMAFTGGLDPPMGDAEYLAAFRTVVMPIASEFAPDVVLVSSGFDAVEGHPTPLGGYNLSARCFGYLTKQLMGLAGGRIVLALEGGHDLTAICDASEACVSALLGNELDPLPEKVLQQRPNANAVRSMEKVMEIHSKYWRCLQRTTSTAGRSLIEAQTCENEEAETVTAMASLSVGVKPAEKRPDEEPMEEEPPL
Assay: HDAC 4 Assay
Format: biochemical
Settings: not active up to the stated concentration; read-out: HDAC 4 IC50, Not active up to
pIC50: −log10 of the molar value.
Recorded Metric: pIC50

# pIC50 (compound: "C[C@@H](NC(=O)c1ccc(C(=O)NO)s1)c1ccccc1" ) is < 6.00

Ref: patent US7977374B2
